- Read-out: CYP2C9 (gene 1559)
- assay_summary: LTEA_HepaRG_CYP2C9: Life Technologies and Expression Analysis (LTEA) Assay for CYP2C9 using HepaRG (AID 2283484)
- measurement_context: mRNA level, 48 h; actives raise or lower the signal
Calls of active or inactive are those of the source. The calls were made as follows: active = hit-call score of the fitted dose curve at least 0.9, where 1 is the maximum; inactive = score below 0.9.
Outcomes you can answer with include only these: active, inactive

**Q:** Assay result, entry `CCCCCCCCC(=O)O` — outcome?
**A:** inactive

**Q:** Assay result, entry `CC(C)(C)c1cc(C(C)(C)C)c(O)c(C(C)(C)C)c1` — outcome?
**A:** inactive

**Q:** Assay result, entry `c1ccc2c(c1)Cc1ccccc1-2` — outcome?
**A:** inactive

**Q:** Assay result, entry `COC(=O)CCCCC(=O)OC` — outcome?
**A:** inactive

**Q:** Assay result, entry `CCCCCCCCCCCCN1CCCC1=O` — outcome?
**A:** inactive

**Q:** Assay result, entry `O=C(OCCOCCOC(=O)c1ccccc1)c1ccccc1` — outcome?
**A:** inactive

**Q:** Assay result, entry `CC[C@H](c1ccc(O)cc1)[C@@H](CC)c1ccc(O)cc1` — outcome?
**A:** inactive

**Q:** Assay result, entry `CCCCCCCCCCCCc1ccccc1S(=O)(=O)O` — outcome?
**A:** active

**Q:** Assay result, entry `O=C(O)Cc1cc(I)c(Oc2cc(I)c(O)c(I)c2)c(I)c1` — outcome?
**A:** active

**Q:** Assay result, entry `Cc1cc(C)c(O)c(C)c1` — outcome?
**A:** active
